For each of the compounds below, state its pIC50.
target of assay: human PDE4D (Homo sapiens)
Construct: PDE4 cDNA constructs containing the coding regions of the three isoenzymes
Sequence (Q08499 1-673 isoform Q08499-2): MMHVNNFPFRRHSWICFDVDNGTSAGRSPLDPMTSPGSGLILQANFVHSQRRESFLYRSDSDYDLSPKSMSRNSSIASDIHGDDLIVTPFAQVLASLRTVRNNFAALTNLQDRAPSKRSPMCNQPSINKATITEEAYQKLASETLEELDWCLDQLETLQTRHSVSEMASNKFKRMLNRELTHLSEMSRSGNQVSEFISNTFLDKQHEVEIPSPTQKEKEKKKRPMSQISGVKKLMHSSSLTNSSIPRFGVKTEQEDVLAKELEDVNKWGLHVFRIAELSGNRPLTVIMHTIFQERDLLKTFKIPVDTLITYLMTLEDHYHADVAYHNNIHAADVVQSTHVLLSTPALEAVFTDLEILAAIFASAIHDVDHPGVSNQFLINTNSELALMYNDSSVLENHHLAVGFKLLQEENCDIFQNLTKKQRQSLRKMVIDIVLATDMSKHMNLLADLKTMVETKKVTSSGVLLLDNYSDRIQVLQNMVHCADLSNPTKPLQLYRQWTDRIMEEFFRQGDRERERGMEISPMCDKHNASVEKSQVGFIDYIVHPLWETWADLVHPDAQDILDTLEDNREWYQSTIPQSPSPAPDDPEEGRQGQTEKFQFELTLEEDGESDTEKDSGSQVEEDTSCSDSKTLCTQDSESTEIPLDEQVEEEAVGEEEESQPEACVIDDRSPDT
assay notes: PDE4 Isoenzyme Inhibition Assay (Scintillation Proximity Assay, [3H]-cAMP)
condition parameters: recombinant 6His-tagged human PDE4D3 expressed in Sf21 cells; 1 μM cAMP; 1% DMSO; room temperature
The value called pIC50 is obtained by taking minus log10 of the concentration in mol/L.

Endpoint output: pIC50 of N#Cc1cccc(-c2nc(N3CCC(O)C3)cc3cccnc23)c1 (centres unmarked) [Example 1] . Value?
9.00

Endpoint output: pIC50 of N#Cc1cccc(-c2nc(N3CCOCC3)cc3cccnc23)c1 [Example 12] . Value?
8.60

Endpoint output: pIC50 of N#Cc1cccc(-c2nc(N3CCC(C(=O)[O-])CC3)cc3cccnc23)c1.[Li+] [Example 3, Lithium salt] . Value?
8.51

Endpoint output: pIC50 of CN1CCN(c2cc3cccnc3c(-c3cccc(C#N)c3)n2)CC1 [Example 15] . Value?
7.98

Endpoint output: pIC50 of O=C(O)C1CCN(c2cc3cccnc3c(-c3ccc(F)c(Cl)c3)n2)CC1 [Example 39] . Value?
8.10

meta.source: patent US7468370B2
